Experiment: Antiproliferative activity against human cancer cell lines harboring wild type RAS mutation assessed as reduction in cell viability
Type: functional, cell-based
measureName: pIC50
Answers are plain numbers, as −log10 of the molar value.

In: What value of measured pIC50 is listed for N#Cc1ccc(Cn2cncc2CN2CCN(c3cccc(Cl)c3)C(=O)C2)cc1 [L-778123 FREE BASE] ?
Out: 7.15

====

Test system: HT-29
Assay: Cytotoxicity against human HT-29 cells assessed as cell growth inhibition after 72 hrs by MTT assay
Assay type: functional, cell-based
Details: HT-29, 72 h
measureName: IC50

In: What value of measured IC50 is listed for N#Cc1ccc(Cn2cncc2CN2CCN(c3cccc(Cl)c3)C(=O)C2)cc1 [L-778123 FREE BASE] ?
Out: 126 µM
